# Tested on: Candida albicans
# Method Notes: Antibiofilm activity against Candida albicans SC5314 assessed as sessile minimum inhibitory concentration measured after 6 hrs by XTT assay
# Assay type: functional
Parameter: MIC80

Solved entries:
Fc1ccc(C(Cn2ccnc2)[Se]C(Cn2ccnc2)c2ccc(F)cc2F)c(F)c1 (configuration not stated)	16 µg/mL
Cc1ccc(C(Cn2ccnc2)[Se][Se]C(Cn2ccnc2)c2ccc(C)cc2)cc1 (configuration not stated)	8 µg/mL
Clc1ccc(C(Cn2ccnc2)[Se][Se]C(Cn2ccnc2)c2ccc(Cl)cc2)cc1 (configuration not stated)	4 µg/mL
Cc1ccc(C(Cn2ccnc2)[Se]C(Cn2ccnc2)c2ccc(C)cc2)cc1 (configuration not stated)	4 µg/mL

Look at this molecule and give its reported MIC80. Clc1ccc(C(Cn2ccnc2)[Se]C(Cn2ccnc2)c2ccc(Cl)cc2)cc1 (configuration not stated)
4 µg/mL

Look at this molecule and give its reported MIC80. Clc1ccc(C(Cn2ccnc2)[Se][Se]C(Cn2ccnc2)c2ccc(Cl)cc2Cl)c(Cl)c1 (configuration not stated)
4 µg/mL

Look at this molecule and give its reported MIC80. `OC(Cn1cncn1)(Cn1cncn1)c1ccc(F)cc1F`
> 1020 µg/mL

###

# Test system: Pichia kudriavzevii
# Method Notes: Antifungal activity against Pichia kudriavzevii by CLSI based broth microdilution method
# Assay type: functional
Parameter: MIC (µg/mL)
State just the number; it will be interpreted in µg/mL.

Cc1ccc(C(Cn2ccnc2)[Se]C(Cn2ccnc2)c2ccc(C)cc2)cc1 (stereo not given)	16
OC(Cn1cncn1)(Cn1cncn1)c1ccc(F)cc1F [FLUCONAZOLE]	32
Fc1ccc(C(Cn2ccnc2)[Se]C(Cn2ccnc2)c2ccc(F)cc2F)c(F)c1 (stereo not given)	32
Fc1ccc(C(Cn2ccnn2)[Se]C(Cn2ccnn2)c2ccc(F)cc2)cc1 (stereo not given)	64
Clc1ccc(C(Cn2ccnc2)[Se]C(Cn2ccnc2)c2ccc(Cl)cc2Cl)c(Cl)c1 (stereo not given)	128

With those in mind, consider the next compound.
Look at this compound and give its reported MIC. Clc1ccc(C(Cn2ccnn2)[Se]C(Cn2ccnn2)c2ccc(Cl)cc2)cc1 (stereo not given)
32

###

# Method Notes: Acute toxicity in water diet-fed Kunming mouse administered intragastrically measured for 7 days
# Condition Summary: in vivo, po, route ig, time 7 day
Parameter: LD50 at 168 h

Look at this compound and give its reported LD50 at 168 h. Clc1ccc(C(Cn2ccnc2)[Se][Se]C(Cn2ccnc2)c2ccc(Cl)cc2Cl)c(Cl)c1 (stereo unspecified)
~2000 mg/kg

###

compounds and their reported MIC
# System: Candida albicans
# Method Notes: Antifungal activity against FCZ-resistant Candida albicans 632 by CLSI based broth microdilution method
# Assay type: functional

Solved entries:
Fc1ccc(C(Cn2cncn2)[Se]C(Cn2cncn2)c2ccc(F)cc2)cc1 (centres undefined)	> 64 mg/L
CCC(C)n1ncn(-c2ccc(N3CCN(c4ccc(OCC5COC(Cn6cncn6)(c6ccc(Cl)cc6Cl)O5)cc4)CC3)cc2)c1=O (centres undefined) [ITRACONAZOLE]	> 64 mg/L
Fc1ccc(C(Cn2ccnn2)[Se][Se]C(Cn2ccnn2)c2ccc(F)cc2F)c(F)c1 (centres undefined)	> 64 mg/L
Fc1ccc(C(Cn2ccnc2)[Se][Se]C(Cn2ccnc2)c2ccc(F)cc2)cc1 (centres undefined)	64 mg/L
Clc1ccc(C(Cn2cnnn2)[Se][Se]C(Cn2cnnn2)c2ccc(Cl)cc2)cc1 (centres undefined)	> 64 mg/L

Look at this compound and give its reported MIC. Clc1ccc(C(Cn2ccnn2)[Se][Se]C(Cn2ccnn2)c2ccc(Cl)cc2Cl)c(Cl)c1 (centres undefined)
> 64 mg/L

Look at this compound and give its reported MIC. Clc1ccc(C(Cn2cncn2)[Se][Se]C(Cn2cncn2)c2ccc(Cl)cc2)cc1 (centres undefined)
> 64 mg/L

Look at this compound and give its reported MIC. Clc1ccc(C(Cn2cncn2)[Se]C(Cn2cncn2)c2ccc(Cl)cc2Cl)c(Cl)c1 (centres undefined)
64 mg/L

Look at this compound and give its reported MIC. Clc1ccc(C(Cn2ccnn2)[Se]C(Cn2ccnn2)c2ccc(Cl)cc2)cc1 (centres undefined)
> 64 mg/L
